# Cond: in propylene glycol, 303.15 K
Observable: solubility (mole fraction)
Kindly provide the number alone.

Sample CS(=O)(=O)c1cccc(C[C@H](NC(=O)c2c(Cl)cc3c(c2Cl)CCN(C(=O)c2ccc4ccoc4c2)C3)C(=O)O)c1 — what was its solubility (mole fraction)?
0.00161

====

# Cond: in PEG-400, 308.15 K
Observable: solubility (mole fraction)
Kindly provide the number alone.

Sample CS(=O)(=O)c1cccc(C[C@H](NC(=O)c2c(Cl)cc3c(c2Cl)CCN(C(=O)c2ccc4ccoc4c2)C3)C(=O)O)c1 — what was its solubility (mole fraction)?
0.0796

====

# Cond: in propylene glycol, 288.15 K
Observable: solubility (mole fraction)
Kindly provide the number alone.

Sample CS(=O)(=O)c1cccc(C[C@H](NC(=O)c2c(Cl)cc3c(c2Cl)CCN(C(=O)c2ccc4ccoc4c2)C3)C(=O)O)c1 — what was its solubility (mole fraction)?
0.00102

====

# Cond: in water, 293.15 K
Observable: solubility (mole fraction)
Kindly provide the number alone.

Sample CS(=O)(=O)c1cccc(C[C@H](NC(=O)c2c(Cl)cc3c(c2Cl)CCN(C(=O)c2ccc4ccoc4c2)C3)C(=O)O)c1 — what was its solubility (mole fraction)?
1.85e-06

====

# Cond: in propylene glycol, 293.15 K
Observable: solubility (mole fraction)
Kindly provide the number alone.

Sample CS(=O)(=O)c1cccc(C[C@H](NC(=O)c2c(Cl)cc3c(c2Cl)CCN(C(=O)c2ccc4ccoc4c2)C3)C(=O)O)c1 — what was its solubility (mole fraction)?
0.00119

====

# Cond: in water, 303.15 K
Observable: solubility (mole fraction)
Kindly provide the number alone.

Sample CS(=O)(=O)c1cccc(C[C@H](NC(=O)c2c(Cl)cc3c(c2Cl)CCN(C(=O)c2ccc4ccoc4c2)C3)C(=O)O)c1 — what was its solubility (mole fraction)?
2.79e-06

====

# Cond: in propylene glycol, 308.15 K
Observable: solubility (mole fraction)
Kindly provide the number alone.

Sample CS(=O)(=O)c1cccc(C[C@H](NC(=O)c2c(Cl)cc3c(c2Cl)CCN(C(=O)c2ccc4ccoc4c2)C3)C(=O)O)c1 — what was its solubility (mole fraction)?
0.00183

====

# Cond: in PEG-400, 288.15 K
Observable: solubility (mole fraction)

Sample CS(=O)(=O)c1cccc(C[C@H](NC(=O)c2c(Cl)cc3c(c2Cl)CCN(C(=O)c2ccc4ccoc4c2)C3)C(=O)O)c1 — what was its solubility (mole fraction)?
0.0757

====

# Cond: in glycerin, 303.15 K
Observable: solubility (mole fraction)

Sample CS(=O)(=O)c1cccc(C[C@H](NC(=O)c2c(Cl)cc3c(c2Cl)CCN(C(=O)c2ccc4ccoc4c2)C3)C(=O)O)c1 — what was its solubility (mole fraction)?
0.000151

====

# Cond: in PEG-400, 298.15 K
Observable: solubility (mole fraction)
Kindly provide the number alone.

Sample CS(=O)(=O)c1cccc(C[C@H](NC(=O)c2c(Cl)cc3c(c2Cl)CCN(C(=O)c2ccc4ccoc4c2)C3)C(=O)O)c1 — what was its solubility (mole fraction)?
0.0776

====

# Cond: in transcutol, 308.15 K
Observable: solubility (mole fraction)
Kindly provide the number alone.

Sample CS(=O)(=O)c1cccc(C[C@H](NC(=O)c2c(Cl)cc3c(c2Cl)CCN(C(=O)c2ccc4ccoc4c2)C3)C(=O)O)c1 — what was its solubility (mole fraction)?
0.0187

====

# Cond: in water, 288.15 K
Observable: solubility (mole fraction)

Sample CS(=O)(=O)c1cccc(C[C@H](NC(=O)c2c(Cl)cc3c(c2Cl)CCN(C(=O)c2ccc4ccoc4c2)C3)C(=O)O)c1 — what was its solubility (mole fraction)?
1.49e-06

====

# Cond: in glycerin, 308.15 K
Observable: solubility (mole fraction)
Kindly provide the number alone.

Sample CS(=O)(=O)c1cccc(C[C@H](NC(=O)c2c(Cl)cc3c(c2Cl)CCN(C(=O)c2ccc4ccoc4c2)C3)C(=O)O)c1 — what was its solubility (mole fraction)?
0.000167

====

# Cond: in transcutol, 293.15 K
Observable: solubility (mole fraction)
Kindly provide the number alone.

Sample CS(=O)(=O)c1cccc(C[C@H](NC(=O)c2c(Cl)cc3c(c2Cl)CCN(C(=O)c2ccc4ccoc4c2)C3)C(=O)O)c1 — what was its solubility (mole fraction)?
0.0159

Where these numbers come from: BigSolDB 2.1
